Measured IC50, listed per entry for reference.
# Subject of test: DPB1*03:01 (Homo sapiens, UniProt P04440+P20036, A65V/A84D/A85E/E86D/F38Y/G113D/G114E/G40L/I94L/L37V/M105V/M116V/P115A/R125K/T199I)
# Assay protocol: competition binding assay, purified HLA DPB1*03:01
# Settings: purified HLA, radiolabeled peptide competition; nM; read-out: binding to DPB1*03:01 (IC50)

Example results:
{"Chemical structure": "CSCC[C@H](NC(=O)[C@H](CCC(=O)O)NC(=O)[C@H](Cc1ccc(O)cc1)NC(=O)[C@H](C)NC(=O)[C@H](CCC(=O)O)NC(=O)[C@H](CC(N)=O)NC(=O)[C@@H](N)CC(=O)O)C(=O)N1CCC[C@H]1C(=O)N[C@@H](COP(=O)(O)O)C(=O)N[C@@H](CCC(=O)O)C(=O)N[C@@H](CCC(=O)O)C(=O)NCC(=O)N[C@@H](Cc1ccc(O)cc1)C(=O)N[C@@H](CCC(N)=O)C(=O)N[C@@H](CC(=O)O)C(=O)O", "Recorded value": "> 10000 nM"}
{"Chemical structure": "CSCC[C@H](NC(=O)[C@H](CCC(=O)O)NC(=O)[C@H](Cc1ccc(O)cc1)NC(=O)[C@H](C)NC(=O)[C@H](CCC(=O)O)NC(=O)[C@H](CC(N)=O)NC(=O)[C@H](CC(=O)O)NC(=O)[C@@H]1CCCN1C(=O)[C@H](CC(=O)O)NC(=O)[C@@H](NC(=O)[C@@H]1CCCN1C(=O)[C@@H](N)CCSC)C(C)C)C(=O)N1CCC[C@H]1C(=O)N[C@@H](COP(=O)(O)O)C(=O)N[C@@H](CCC(=O)O)C(=O)O", "Recorded value": "> 10000 nM"}
{"Chemical structure": "CSCC[C@H](NC(=O)[C@H](CCC(=O)O)NC(=O)[C@H](Cc1ccc(O)cc1)NC(=O)[C@H](C)NC(=O)[C@H](CCC(=O)O)NC(=O)[C@H](CC(N)=O)NC(=O)[C@H](CC(=O)O)NC(=O)[C@@H]1CCCN1C(=O)[C@H](CC(=O)O)NC(=O)[C@@H](NC(=O)[C@@H]1CCCN1C(=O)[C@@H](N)CCSC)C(C)C)C(=O)N1CCC[C@H]1C(=O)N[C@@H](CO)C(=O)N[C@@H](CCC(=O)O)C(=O)O", "Recorded value": "> 10000 nM"}

# next compound below
Recall and state the measured IC50 for CSCC[C@H](NC(=O)[C@@H](N)CCC(=O)O)C(=O)N1CCC[C@H]1C(=O)N[C@@H](CO)C(=O)N[C@@H](CCC(=O)O)C(=O)N[C@@H](CCC(=O)O)C(=O)NCC(=O)N[C@@H](Cc1ccc(O)cc1)C(=O)N[C@@H](CCC(N)=O)C(=O)N[C@@H](CC(=O)O)C(=O)N[C@@H](Cc1ccc(O)cc1)C(=O)N[C@@H](CCC(=O)O)C(=O)N1CCC[C@H]1C(=O)N[C@@H](CCC(=O)O)C(=O)N[C@@H](C)C(=O)O . > 10000 nM

----------
# Subject of test: DPB1*04:01 (Homo sapiens, UniProt P04440)
# Sequence (P04440 30-258): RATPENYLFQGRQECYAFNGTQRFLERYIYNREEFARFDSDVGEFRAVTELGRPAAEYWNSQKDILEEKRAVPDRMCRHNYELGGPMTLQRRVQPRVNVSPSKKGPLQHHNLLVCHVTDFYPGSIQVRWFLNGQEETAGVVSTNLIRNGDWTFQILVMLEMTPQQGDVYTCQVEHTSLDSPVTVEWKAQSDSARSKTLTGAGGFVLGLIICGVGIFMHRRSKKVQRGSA
# Sequence (P20036 29-260 partner): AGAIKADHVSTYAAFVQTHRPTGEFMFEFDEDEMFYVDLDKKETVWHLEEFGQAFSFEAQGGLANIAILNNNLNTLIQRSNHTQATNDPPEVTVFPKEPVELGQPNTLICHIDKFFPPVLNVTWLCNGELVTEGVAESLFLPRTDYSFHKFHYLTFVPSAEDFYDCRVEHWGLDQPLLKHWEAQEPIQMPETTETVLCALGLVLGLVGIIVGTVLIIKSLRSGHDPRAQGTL
# Assay protocol: competition binding assay, purified HLA DPB1*04:01
# Settings: purified HLA, radiolabeled peptide competition; nM; read-out: binding to DPB1*04:01 (IC50)
Attribute measured: IC50

Recall and state the measured IC50 for CSCC[C@H](NC(=O)[C@H](CCC(=O)O)NC(=O)[C@H](Cc1ccc(O)cc1)NC(=O)[C@H](C)NC(=O)[C@H](CCC(=O)O)NC(=O)[C@H](CC(N)=O)NC(=O)[C@H](CC(=O)O)NC(=O)[C@@H]1CCCN1C(=O)[C@H](CC(=O)O)NC(=O)[C@@H](NC(=O)[C@@H]1CCCN1C(=O)[C@@H](N)CCSC)C(C)C)C(=O)N1CCC[C@H]1C(=O)N[C@@H](COP(=O)(O)O)C(=O)N[C@@H](CCC(=O)O)C(=O)O . > 10000 nM
